- EXPERIMENTAL PROTOCOL: Binding affinity for dopamine D4-like receptor labelled with [3H]YM-09151-2 in retina
- Assay type: tissue-based, Bos taurus
pKi: −log10 of the molar value.
# if value of pKi reaches 8, tag fulfilled; if it stays below, tag not fulfilled

As a guide, the following entries are already answered.
{"columns": ["MOLECULE", "QUALITATIVE LABEL"],
 "data": [
  ["CCCN1CCC[C@H](c2ccc(C)c(C)c2)C1", "fulfilled"],
  ["Cc1cccc(C(=O)NCN2CCN(c3ccccc3C#N)CC2)c1", "not fulfilled"],
  ["CCCN1CCC[C@@H](c2cccc(O)c2)C1", "not fulfilled"],
  ["CCCN1CCC[C@H](c2cccc(O)c2)C1", "not fulfilled"],
  ["CCCN1CCC[C@@H]2Cc3n[nH]cc3C[C@H]21", "not fulfilled"]
]}

### Prompt Is it the case that `CCCN1CCC[C@@H](c2ccc(C)c(C)c2)C1` has pKi reaching or exceeding 8?
### Response not fulfilled

----------
- EXPERIMENTAL PROTOCOL: Binding affinity for dopamine D2-D3 like receptor labelled with [3H]YM-09151-2 in striatum
- Assay type: tissue-based, Bos taurus
OBSERVED PROPERTY: log10 of Ki (log10 of the value in nM)
Transform log10 | Measure Ki | Unit nM

{"columns": ["COMPOUND", "OBSERVED PROPERTY", "MEAS VALUE"],
 "data": [
  ["NCCc1ccc(O)c(O)c1", "log10 of Ki", 2.11],
  ["CCCN1CCC[C@H](c2cccc(O)c2)C1", "log10 of Ki", 2.61],
  ["CCCN1CCC[C@@H]2Cc3n[nH]cc3C[C@H]21", "log10 of Ki", 2.38],
  ["CCCN1CCC[C@@H](c2cccc(O)c2)C1", "log10 of Ki", 0.90],
  ["CCCN1CCC[C@@H](c2ccc(C)c(C)c2)C1", "log10 of Ki", 3.70]
]}

In plain terms, CCCN1CCCC(c2ccc(C)c(C)c2)C1 (stereo not drawn) has a documented log10 of Ki of 4.04

In plain terms, `Cc1cccc(C(=O)NCN2CCN(c3ccccc3C#N)CC2)c1` has a documented log10 of Ki of 4.26

----------
- TARGET UNDER TEST: D(1A) dopamine receptor (Bos taurus, UniProt Q95136)
- Sequence (Q95136 whole entry): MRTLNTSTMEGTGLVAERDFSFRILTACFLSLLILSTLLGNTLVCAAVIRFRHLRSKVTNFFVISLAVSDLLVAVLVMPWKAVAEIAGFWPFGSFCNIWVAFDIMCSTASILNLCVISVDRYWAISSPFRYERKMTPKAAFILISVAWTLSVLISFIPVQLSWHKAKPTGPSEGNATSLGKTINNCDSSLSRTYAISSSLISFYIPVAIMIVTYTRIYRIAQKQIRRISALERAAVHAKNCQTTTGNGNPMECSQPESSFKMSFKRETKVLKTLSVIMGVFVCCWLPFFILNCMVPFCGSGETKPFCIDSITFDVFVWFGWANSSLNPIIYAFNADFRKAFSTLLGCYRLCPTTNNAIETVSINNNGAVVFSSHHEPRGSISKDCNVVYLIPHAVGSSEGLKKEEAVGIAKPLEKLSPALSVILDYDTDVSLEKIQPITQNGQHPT
- EXPERIMENTAL PROTOCOL: Binding affinity for dopamine D1-like receptor labelled with [3H]SCH-23390 in retina
pKi: −log10 of the molar value.
OBSERVED PROPERTY: pKi

{"columns": ["MOLECULE", "pKi"],
 "data": [
  ["CCCN1CCCC(c2ccc(C)c(C)c2)C1 (stereo not drawn)", "< 4.00"],
  ["CCCN1CCC[C@H](c2ccc(C)c(C)c2)C1", "< 4.00"]
]}

In plain terms, `CCCN1CCC[C@@H](c2ccc(C)c(C)c2)C1` has a documented pKi of < 4.00
